Numbers sourced from patent EP2257297B1.

molecular target: human MC5R (Homo sapiens, UniProt P33032); construct: purchased Perkin Elmer RBXMC5M400UA; test: Human MC5R radioligand binding assay ([125I] NDP-MSH displacement, hMC5R membranes); conditions: hMC5R assay as in Example 102; compounds tested as trifluoroacetate or hydrochloride salts, or as free base
Sequence (P33032 whole entry): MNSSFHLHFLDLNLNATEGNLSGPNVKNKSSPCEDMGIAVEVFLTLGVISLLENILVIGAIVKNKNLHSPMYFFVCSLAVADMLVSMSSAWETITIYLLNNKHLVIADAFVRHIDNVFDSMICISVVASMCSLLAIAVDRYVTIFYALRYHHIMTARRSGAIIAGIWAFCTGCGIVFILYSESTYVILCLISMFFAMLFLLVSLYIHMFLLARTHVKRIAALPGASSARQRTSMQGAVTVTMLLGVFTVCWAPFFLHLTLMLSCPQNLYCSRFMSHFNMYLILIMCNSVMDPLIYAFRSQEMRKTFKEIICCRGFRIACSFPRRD
pIC50: −log10 of the molar value.
measurement_type: pIC50

compound="NC[C@@H]1N[C@H](CNC(=O)c2ccc3ccccc3c2)CCN(Cc2cc(Cl)cc(Cl)c2)C1=O [Compound 365]" result_value="> 6.00"
compound="N=C(N)NCCC[C@@H]1N[C@H](CNC(=O)C2CCc3ccccc3C2)CCN(CC(c2ccccc2)c2ccccc2)C1=O (stereo partly drawn) [Compound 111]" result_value="> 7.00"

Okay, now this compound:
**Q:** GET /values?readout=pIC50&item= N=C(N)NCCC[C@@H]1N[C@H](CNC(=O)/C=C/c2ccc(C(F)(F)F)cc2)CCN(CC(c2ccccc2)c2ccccc2)C1=O [Compound 200]
**A:** > 7.00

---

biological target: human MC5R (Homo sapiens); construct: purchased Perkin Elmer RBXMC5M400UA; test: Human MC5R radioligand binding assay ([125I] NDP-MSH displacement, hMC5R membranes); settings: hMC5R assay as in Example 102; compounds tested as trifluoroacetate or hydrochloride salts, or as free base
pIC50: −log10 of the molar value.
measurement_type: pIC50

smiles_str=O=C(/C=C/c1ccc(Cl)cc1)NC[C@@H]1CCN(CC(c2ccccc2)c2ccccc2)C(=O)[C@H](CN2CCCCC2)N1 measurement_type=pIC50 result_value="> 8.00"
smiles_str=CN(C)C(=N)NCCC[C@@H]1N[C@H](CNC(=O)c2ccc3ccccc3c2)CCN(CC(c2ccccc2)c2ccccc2)C1=O measurement_type=pIC50 result_value="> 7.00"
smiles_str=O=C(/C=C/c1ccc(Cl)cc1)NC[C@@H]1CCN(CC(c2ccccc2)c2ccccc2)C(=O)[C@H](CCC(=O)N2CCCCC2)N1 measurement_type=pIC50 result_value="> 7.00"

Switching to the query record.
**Q:** What value of measured pIC50 is listed for COc1ccc2cc(C(=O)NC[C@@H]3CCN(CC(c4ccccc4)c4ccccc4)C(=O)[C@H](CCCNC(=N)N)N3)ccc2c1 ?
**A:** > 7.00
